Data provenance: PubChem BioAssay

Assay: resazurin metabolic signal in A549 cells – cell-based, resazurin fluorescence, 24 h, PK04 Diversity Set, profiling panel (AID 1171); also: test concentration not given here
Conditions: A549 viability, higher = more signal, called active from +8 up or from −8 down
Listing of entries alongside the reported z-score.
MEASURED ATTRIBUTE: z-score

[
  {
    "COMPOUND": "C=CC[C@]1(C(N)=O)COC(c2ccc(OCCCO)cc2)=N1",
    "MEASURED ATTRIBUTE": "z-score",
    "RESULT": 0.381
  },
  {
    "COMPOUND": "COc1ccc(C(O)C2C=CC3C(=O)N(C)C(=O)C3N2N(c2ccccc2)c2ccccc2)c2ccccc12 (stereo unspecified)",
    "MEASURED ATTRIBUTE": "z-score",
    "RESULT": -0.738
  },
  {
    "COMPOUND": "COC(=O)[C@@]1(Cc2ccc(OC)cc2)[C@H]2c3cc(C(=O)N4CCCC4)n(Cc4nc5ccccc5[nH]4)c3C[C@H]2CN1C(=O)c1ccccc1",
    "MEASURED ATTRIBUTE": "z-score",
    "RESULT": 0.161
  },
  {
    "COMPOUND": "CCOC(=O)C1=CC[C@@H](c2ccccc2)N(S(=O)(=O)c2ccc(C)cc2)[C@H]1c1ccc(CC)cc1",
    "MEASURED ATTRIBUTE": "z-score",
    "RESULT": 1.48
  },
  {
    "COMPOUND": "COCCCNC(=O)[C@@H]1c2ccccc2C(=O)N(Cc2ccccc2OC)[C@H]1c1ccc(CO)cc1",
    "MEASURED ATTRIBUTE": "z-score",
    "RESULT": 1.71
  },
  {
    "COMPOUND": "CCCC(=O)N(CCc1c[nH]c2ccccc12)[C@@H]1CC(C(=O)NCCO)=C[C@H](Oc2c(I)cc(CO)cc2OC)[C@H]1O",
    "MEASURED ATTRIBUTE": "z-score",
    "RESULT": -0.558
  },
  {
    "COMPOUND": "CCCC=C(CCC)[C@@H](NS(=O)(=O)c1ccc(Cl)cc1)c1ccc(C(=O)OC)cc1",
    "MEASURED ATTRIBUTE": "z-score",
    "RESULT": 0.475
  },
  {
    "COMPOUND": "CCOC(=O)C1=CCC(c2ccc(F)cc2)N(S(=O)(=O)c2ccc(C)cc2)C1 (stereo unspecified)",
    "MEASURED ATTRIBUTE": "z-score",
    "RESULT": -0.0491
  },
  {
    "COMPOUND": "CC(c1ccccc1)C(O)C1C=CC2C(=O)N(C)C(=O)C2N1NC(=O)OC(C)(C)C (stereo unspecified)",
    "MEASURED ATTRIBUTE": "z-score",
    "RESULT": 0.866
  },
  {
    "COMPOUND": "C=C(CCCC)/C(=C/C[C@H](OC(C)=O)c1ccccc1OCCO)c1cnc2ccccc2c1",
    "MEASURED ATTRIBUTE": "z-score",
    "RESULT": -0.344
  },
  {
    "COMPOUND": "CS(=O)(=O)CCOC(=O)C1=CC(CCCO)=CC(C2CC2)N(Cc2cc3c(cc2Br)OCO3)C=C1C(=O)OCCS(C)(=O)=O (stereo unspecified)",
    "MEASURED ATTRIBUTE": "z-score",
    "RESULT": 0.796
  },
  {
    "COMPOUND": "COC(=O)[C@@]1(Cc2ccc(OC)cc2)[C@H]2c3cc(C(=O)N4CCCC4)n(CCc4ccc(O)c(O)c4)c3C[C@H]2CN1C(=O)c1ccccc1",
    "MEASURED ATTRIBUTE": "z-score",
    "RESULT": -0.0046
  },
  {
    "COMPOUND": "C=C(CCCC)C(=O)CC[C@@H](OC(C)=O)c1ccc(CO)o1",
    "MEASURED ATTRIBUTE": "z-score",
    "RESULT": -0.0655
  },
  {
    "COMPOUND": "COC(=O)[C@@]1(Cc2ccc(OC)cc2)[C@H]2c3cc(C(=O)N4CCCC4)n(CCSCCO)c3C[C@H]2CN1C(=O)c1ccccc1",
    "MEASURED ATTRIBUTE": "z-score",
    "RESULT": 1.57
  },
  {
    "COMPOUND": "C=CC[C@@]1(C(=O)N2CCCCC2)N=C(c2ccc(OCCCO)cc2)O[C@@H]1c1ccccc1N=[N+]=[N-]",
    "MEASURED ATTRIBUTE": "z-score",
    "RESULT": -1.5
  },
  {
    "COMPOUND": "COCCOC(=O)N1C(=O)[C@@]2(c3ccccc31)[C@H](C(=O)N1CCCCCCC1)[C@H]1C(=O)O[C@H](c3ccccc3)[C@H](c3ccccc3)N1[C@@H]2c1ccc(OCCO)cc1",
    "MEASURED ATTRIBUTE": "z-score",
    "RESULT": 0.526
  }
]
